Source: the supplement of paper PMC10077471

system: NCI-H446; assay: excess over highest single agent (ExcessHSA) synergy score, 6x6 matrix; higher = less synergy (more negative = stronger synergy); conditions: 72 h; CellTiter-Glo viability
The full ranking holds about 1,900 compounds; the median of “excess over highest single agent (ExcessHSA) synergy score, 6x6 matrix” is about -83, and the lowest 2% start at about -370. The sample holds the lowest values, similar compounds and a random draw of the others, so the mix is not that of the screen.
measurement kind: excess over highest single agent
Numbers only.

Solved entries:
molecule	test system	excess over highest single agent
O=C(O)[C@]1(Cc2cccc(Nc3nccs3)n2)CC[C@@H](Oc2cccc(Cl)c2F)CC1 + Cc1sc2c(c1C)C(c1ccc(Cl)cc1)=N[C@@H](CC(=O)OC(C)(C)C)c1nnc(C)n1-2	NCI-H446	-273
CN[C@H]1CCc2cc(OC)c(OC)c(OC)c2-c2ccc(OC)c(=O)cc21 + Cc1sc2c(c1C)C(c1ccc(Cl)cc1)=N[C@@H](CC(=O)OC(C)(C)C)c1nnc(C)n1-2	NCI-H446	-167
C#CCN(C)CC1=Cc2ccccc2Oc2ccccc21 + Cc1sc2c(c1C)C(c1ccc(Cl)cc1)=N[C@@H](CC(=O)OC(C)(C)C)c1nnc(C)n1-2	NCI-H446	-204
C[C@H]1[C@@H](O)O[C@@H]2O[C@@]3(C)CC[C@H]4[C@H](C)CC[C@@H]1[C@@]24OO3 + Cc1sc2c(c1C)C(c1ccc(Cl)cc1)=N[C@@H](CC(=O)OC(C)(C)C)c1nnc(C)n1-2	NCI-H446	-199
O=C1[C@H](Cc2ccc(O)cc2)N2C(=O)CCN(C(=O)NCc3ccccc3)[C@H]2CN1Cc1cccc2ccccc12 + Cc1sc2c(c1C)C(c1ccc(Cl)cc1)=N[C@@H](CC(=O)OC(C)(C)C)c1nnc(C)n1-2	NCI-H446	-294

Okay, here is my list. What is excess over highest single agent for each of these?
1. COc1cc(NCc2ccc3nc(N)nc(N)c3c2C)cc(OC)c1OC + Cc1sc2c(c1C)C(c1ccc(Cl)cc1)=N[C@@H](CC(=O)OC(C)(C)C)c1nnc(C)n1-2
2. CCNC(=O)c1cc2c(-c3cc(OCCN4CCCC4)c(Cl)cc3Cl)nc(N)nc2s1 + Cc1sc2c(c1C)C(c1ccc(Cl)cc1)=N[C@@H](CC(=O)OC(C)(C)C)c1nnc(C)n1-2
3. CCCS(=O)(=O)Nc1ccc(F)c(C(=O)c2c[nH]c3ncc(-c4ccc(Cl)cc4)cc23)c1F + Cc1sc2c(c1C)C(c1ccc(Cl)cc1)=N[C@@H](CC(=O)OC(C)(C)C)c1nnc(C)n1-2
4. CCCS(=O)(=O)Nc1ccc(F)c(C(=O)c2c[nH]c3ncc(Cl)cc23)c1F + Cc1sc2c(c1C)C(c1ccc(Cl)cc1)=N[C@@H](CC(=O)OC(C)(C)C)c1nnc(C)n1-2
5. Cc1cccc(-c2[nH]c(C(C)(C)C)nc2-c2ccc3c(c2)OCO3)n1 + Cc1sc2c(c1C)C(c1ccc(Cl)cc1)=N[C@@H](CC(=O)OC(C)(C)C)c1nnc(C)n1-2
6. Cn1cc(C2=C(c3c4n(c5ccccc35)CCC(CN)C4)C(=O)NC2=O)c2ccccc21 (stereo not drawn) + Cc1sc2c(c1C)C(c1ccc(Cl)cc1)=N[C@@H](CC(=O)OC(C)(C)C)c1nnc(C)n1-2
7. COc1ccc(-c2ccc3ncc4c(c3c2)n(-c2ccc(N3CCNCC3)c(C(F)(F)F)c2)c(=O)n4C)cn1 + Cc1sc2c(c1C)C(c1ccc(Cl)cc1)=N[C@@H](CC(=O)OC(C)(C)C)c1nnc(C)n1-2
8. CNC(=O)c1ccc(N2C(=S)N(c3cnc(C#N)c(C(F)(F)F)c3)C(=O)C23CCC3)cc1F + Cc1sc2c(c1C)C(c1ccc(Cl)cc1)=N[C@@H](CC(=O)OC(C)(C)C)c1nnc(C)n1-2

Resp:
1. -213
2. -89.1
3. -108
4. -97.1
5. -84.7
6. -42.8
7. -20.2
8. -9.84

Okay, here is my list. What is excess over highest single agent for each of these?
1. CC(C)(C)OC(=O)CN(Cc1ccc(Cl)cc1)Cc1ccc([N+](=O)[O-])s1 + Cc1sc2c(c1C)C(c1ccc(Cl)cc1)=N[C@@H](CC(=O)OC(C)(C)C)c1nnc(C)n1-2
2. CNC(=O)c1ccc(-c2cnc3ncc(Cc4ccc5ncccc5c4)n3n2)cc1F + Cc1sc2c(c1C)C(c1ccc(Cl)cc1)=N[C@@H](CC(=O)OC(C)(C)C)c1nnc(C)n1-2
3. CN(C)CCN(C)C(=O)c1ccc(NC(=O)Nc2ccc(-c3nc(N4CCOCC4)c4ccn(CC(F)(F)F)c4n3)cc2)cc1 + Cc1sc2c(c1C)C(c1ccc(Cl)cc1)=N[C@@H](CC(=O)OC(C)(C)C)c1nnc(C)n1-2
4. CCCCOc1c(C(=O)c2c(F)cc(C)cc2F)c[nH]c2nncc1-2 + Cc1sc2c(c1C)C(c1ccc(Cl)cc1)=N[C@@H](CC(=O)OC(C)(C)C)c1nnc(C)n1-2
5. CC(C)c1ccccc1Cc1cc(C(=O)Nc2ccc(S(=O)(=O)c3ccccc3C(C)(C)C)cc2)c(O)c(O)c1O + Cc1sc2c(c1C)C(c1ccc(Cl)cc1)=N[C@@H](CC(=O)OC(C)(C)C)c1nnc(C)n1-2

Resp:
1: 27; 2: 48.7; 3: -272; 4: -375; 5: -282
